EXPERIMENTAL TARGET: MMP-7 (Homo sapiens, UniProt P09237)
Construct: purchased SIGMA CC1059
Sequence (P09237 95-267): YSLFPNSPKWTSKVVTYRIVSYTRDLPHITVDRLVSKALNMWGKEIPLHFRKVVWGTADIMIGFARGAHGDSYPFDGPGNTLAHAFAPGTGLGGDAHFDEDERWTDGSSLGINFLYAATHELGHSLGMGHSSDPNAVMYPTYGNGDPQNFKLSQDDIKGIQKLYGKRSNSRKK
METHOD NOTES: FRET peptide cleavage efficiency with MMP-7 (standard pH 7.5; also pH 6.5)
Type: biochemical
RECORDED CONDITIONS: t = 15 min (Table 9)
Square brackets hold non-standard residues; d marks the D form. Ends that are not written are not given here. Tyr(3-NO2) = N[C@@H](Cc1ccc(O)c([N+](=O)[O-])c1)C(=O)O; Nle = CCCC[C@H](N)C(=O)O; 2Abz = Nc1ccccc1C(=O)O
Simple rule here: % cleavage MMP-7 t = 15 min less than 1% is fulfilled, otherwise not fulfilled.

Completed entries (count: 8):
SUBSTANCE: RGRRGP ([2Abz]RGRRGP[Tyr(3-NO2)]-NH2) [LNK048]
EXPERIMENTAL TARGET: MMP-7 (Homo sapiens, UniProt P09237)
CAT: fulfilled
//
SUBSTANCE: RGRRSGRAANLVRPLGYFGKL ([2Abz]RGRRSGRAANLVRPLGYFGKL[Tyr(3-NO2)]-NH2) [LNK059]
EXPERIMENTAL TARGET: MMP-7 (Homo sapiens, UniProt P09237)
CAT: fulfilled
//
SUBSTANCE: SGRVLRKAGPQPLVD ([2Abz]SGRVLRKAGPQPLVD[Tyr(3-NO2)]-NH2) [LNK003]
EXPERIMENTAL TARGET: MMP-7 (Homo sapiens, UniProt P09237)
CAT: not fulfilled
//
SUBSTANCE: RSSYRSL ([2Abz]RSSYRSL[Tyr(3-NO2)]-NH2) [LNK075]
EXPERIMENTAL TARGET: MMP-7 (Homo sapiens, UniProt P09237)
CAT: fulfilled
//
SUBSTANCE: SGRVANYFGKL ([2Abz]SGRVANYFGKL[Tyr(3-NO2)]-NH2) [LNK054]
EXPERIMENTAL TARGET: MMP-7 (Homo sapiens, UniProt P09237)
CAT: fulfilled
//
SUBSTANCE: RGRKPY-Nle-LQG ([2Abz]RGRKPY[Nle]LQG[Tyr(3-NO2)]-NH2) [LNK036]
EXPERIMENTAL TARGET: MMP-7 (Homo sapiens, UniProt P09237)
CAT: not fulfilled
//
SUBSTANCE: RGRKVANLVG ([2Abz]RGRKVANLVG[Tyr(3-NO2)]-NH2) [LNK031]
EXPERIMENTAL TARGET: MMP-7 (Homo sapiens, UniProt P09237)
CAT: not fulfilled
//
SUBSTANCE: SSRGRRGPYMLQG ([2Abz]SSRGRRGPYMLQG[Tyr(3-NO2)]-NH2) [LNK021]
EXPERIMENTAL TARGET: MMP-7 (Homo sapiens, UniProt P09237)
CAT: not fulfilled

Moving on to the next substance.
Please determine if RGRKPYMLQG ([2Abz]RGRKPYMLQG[Tyr(3-NO2)]-NH2) [LNK035] is below 1% in terms of % cleavage MMP-7 t = 15 min.
not fulfilled
